Recorded EC50 values for a group of compounds are listed next.
Test system: HT-29 colorectal adenocarcinoma
Assay: Cell growth inhibition assay, resazurin (Example 11)
Assay type: cell-based
Details: Homo sapiens, 48 hours, mean ± SD where n ≧ 3
Description: The growth inhibitory activity of NPI-2421, NPI-2463, NPI-2503 and NPI-2504 were determined against selected human (colorectal adenocarcinoma, HT-29; breast adenocarcinoma, MDA-MB-231; non-small cell lung carcinoma, NCI-H292 and prostate carcinomas, PC-3 and DU 145) and mouse (melanoma, B16-F10) tumor cell lines. HT-29 (HTB-38), MDA-MB-231 (HTB-26), NCI-H292 (CRL-1848), B16-F10 (CRL-6475), PC-3 (CRL-1435) and DU 145 (HTB-81) cells were all purchased from the ATCC. […]
Give your result in nM as a bare value.

Use the examples below as a reference point.
CC(C)(C)c1ocnc1/C=c1\[nH]c(=O)/c(=C/c2cccc(F)c2)[nH]c1=O :: 16
CC(C)(C)c1ocnc1/C=c1\[nH]c(=O)/c(=C/c2c(F)c(F)cc(F)c2F)[nH]c1=O :: 11
CC(C)(C)c1ocnc1/C=c1\[nH]c(=O)/c(=C/c2cc(F)cc(F)c2F)[nH]c1=O :: 17

Next, consider the following compound.
Q. Which measured EC50 value corresponds to CC(C)(C)c1ocnc1/C=c1\[nH]c(=O)/c(=C/c2ccccc2)[nH]c1=O ?
A. 21
